# key: entry, value: Relative IC50 (IC50 relative to CM-1), IL-6 release from hS100A8/A9-activated human PBMCs
ASSAY SYSTEM: T1, human S100A8/A9 heterodimeric antigen, His-tagged (hS100A8/A9-His) (human, UniProt P05109 1-93; P06702 1-114)
T1 sequence 1: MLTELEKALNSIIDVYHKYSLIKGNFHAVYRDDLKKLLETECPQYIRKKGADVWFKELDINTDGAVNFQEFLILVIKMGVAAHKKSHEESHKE
T1 sequence 2: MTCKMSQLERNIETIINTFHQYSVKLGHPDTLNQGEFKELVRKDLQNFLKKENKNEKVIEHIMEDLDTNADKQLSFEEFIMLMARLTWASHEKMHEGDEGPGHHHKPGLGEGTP
MEASUREMENT NOTES: cell-based or functional assay

# BINDER, MEASURED RESULT
records = [
    ("CM-115 (antibody, human IgG4 S228P, lambda, V domains shown) VH: EVQLVESGGGLVQPGGSLRLSCAASGFTWSDYAMSWVRQAPGKGLEWVSAISGSGGSTYYAASVKGRFTISRDNSKNTLYLQMNSLRAEDTAVYYCARKYRPSRVFDAWGQGTLVTVSS VL: SYELTQPPSVSVAPGQTARITCSGDALGDKYASWYQQKPGQAPVLVIYEDAKRPSGIPERFSGSNSGNTATLTISGTQAEDEADYYCQSNDADAWWVFGGGTKLTVLG", "1.34 relative to CM-1"),
    ("CM-118 (antibody, human IgG4 S228P, lambda, V domains shown) VH: EVQLVESGGGLVQPGGSLRLSCAASGFTFSDYAMSWVRQAPGKGLEWVSAISGSGGSTYYAASVKGRFTISRDNSKNTLYLQMNSLRAEDTAVYYCARKYRPSRVFDHWGQGTLVTVSS VL: SYELTQPPSVSVAPGQTARITCSGDALGDKYASWYQQKPGQAPVLVIYEDAKRPSGIPERFSGSNSGNTATLTISGTQAEDEADYYCQSNDADAWWVFGGGTKLTVLG", "1.63 relative to CM-1"),
    ("CM-75 (antibody, human IgG4 S228P, lambda, V domains shown) VH: EVQLVESGGGLVQPGGSLRLSCAASGFTFSSYAMSWVRQAPGKGLEWVSAISGSGGSTYYVASVKGRFTISRDNSKNTLYLQMNSLRAEDTAVYYCARKYRPSRAFDAWGQGTLVTVSS VL: SYELTQPPSVSVAPGQTARITCSGDALGDKFASWYQQKPGQAPVLVIYQDAKRPSGIPERFSGSNSGNTATLTISGTQAEDEADYYCQSNDADAVWVFGGGTKLTVLG", "2.85 relative to CM-1"),
    ("CM-91 (antibody, human IgG4 S228P, lambda, V domains shown) VH: EVQLVESGGGLVQPGGSLRLSCAASGFTFSDYAMSWVRQAPGKGLEWVSAISGSGGSTYYAASVKGRFTISRDNSKNTLYLQMNSLRAEDTAVYYCARKYRPSRVFDAWGQGTLVTVSS VL: SYELTQPPSVSVAPGQTARITCSGDALHDKYAAWYQQKPGQAPVLVIYEDAKRPSGIPERFSGSNSGNTATLTISGTQAEDEADYYCQSNDADAVWVFGGGTKLTVLG", "1.1 relative to CM-1"),
]

Note: attention shifts to another entry.
Data request: Query: Relative IC50 (IC50 relative to CM-1), IL-6 release from hS100A8/A9-activated human PBMCs; subject: CM-66 (antibody, human IgG4 S228P, lambda, V domains shown) VH: EVQLVESGGGLVQPGGSLRLSCAASGFTYSSYAMSWVRQAPGKGLEWVSAISGSGGSTYYAASVKGRFTISRDNSKNTLYLQMNSLRAEDTAVYYCARKYRPSRAFDAWGQGTLVTVSS VL: SYELTQPPSVSVAPGQTARITCSGDALGDKYASWYQQKPGQAPVLVIYEDAKRPSGIPERFSGSNSGNTATLTISGTQAEDEADYYCQSNDIDAVWVFGGGTKLTVLG
Data returned: 0.694 relative to CM-1
